test.target: human TMEM106B (human, UniProt Q9NUM4 2-274); note: test concentration or dose not given here
protocol: cell-based or functional assay
quantity.kind: % Protection from CPE (%)
Give the quantity in %, number only.

Quick check: % Protection from CPE of TM-26 (antibody, V domains shown) VH: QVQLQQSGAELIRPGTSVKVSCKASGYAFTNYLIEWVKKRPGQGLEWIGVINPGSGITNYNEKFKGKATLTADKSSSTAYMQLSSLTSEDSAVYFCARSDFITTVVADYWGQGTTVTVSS VL: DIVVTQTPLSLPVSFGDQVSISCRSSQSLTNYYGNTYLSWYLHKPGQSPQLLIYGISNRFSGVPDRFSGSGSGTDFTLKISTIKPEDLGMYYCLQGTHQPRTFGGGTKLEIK ? 4.3

Next binder: TM-60 (antibody, V domains shown) VH: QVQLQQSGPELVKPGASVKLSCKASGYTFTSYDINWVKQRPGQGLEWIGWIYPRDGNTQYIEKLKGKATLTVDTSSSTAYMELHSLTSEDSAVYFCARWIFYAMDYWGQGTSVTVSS VL: DVLMTQTPLSLPVSLGDQASISCRSSQSIVHGNGNTYLEWYLQKPGQSPKLLIYKVSNRFSGVPDRFSGSGSGTDFTLKISRVEAEDLGVYYCFQGSHLPYTFGGGTKLEIK 94.2

Next binder: TM-37 (antibody, V domains shown) VH: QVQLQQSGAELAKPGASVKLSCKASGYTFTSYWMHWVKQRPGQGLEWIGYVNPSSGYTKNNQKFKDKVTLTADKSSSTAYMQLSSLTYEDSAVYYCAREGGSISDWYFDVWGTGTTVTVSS VL: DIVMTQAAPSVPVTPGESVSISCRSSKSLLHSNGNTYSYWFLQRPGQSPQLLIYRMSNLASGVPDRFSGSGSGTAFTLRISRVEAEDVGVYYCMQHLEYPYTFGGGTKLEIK 90.2
